Where these numbers come from: patent US9423396B2

Reported Flu values for the following compounds.
- procedure text: Spectroscopic measurements (absorption, emission, quantum yield, extinction coefficient)
- Type: physicochemical
- test parameters: fluorescence emission maximum, BDNCA library

>  <compound>
Cc1cc(/C=C/c2ccc(OCc3ccc(F)cc3)cc2)n2c1C(c1ccc(NC(=O)CCl)cc1)=C1C=CC=[N+]1[B-]2(F)F [BDNCA-378]

>  <Flu>
597

$$$$
>  <compound>
Cc1cc(/C=C/c2ccc(Br)cc2)n2c1C(c1ccc(NC(=O)CCl)cc1)=C1C=CC=[N+]1[B-]2(F)F [BDNCA-409]

>  <Flu>
577

$$$$
>  <compound>
CC1=CC(/C=C/c2ccc(Oc3ccc(F)cc3)cc2)=[N+]2C1=C(c1ccc(NC(=O)CCl)cc1)c1cccn1[B-]2(F)F [BDNCA-322]

>  <Flu>
588

$$$$
>  <compound>
CCOc1cc(/C=C/C2=[N+]3C(=C(c4ccc(NC(=O)CCl)cc4)c4cccn4[B-]3(F)F)C(C)=C2)ccc1O [BDNCA-397]

>  <Flu>
613

$$$$
>  <compound>
CC1=CC(/C=C/c2cc(C)c(C)cc2C)=[N+]2C1=C(c1ccc(NC(=O)CCl)cc1)c1cccn1[B-]2(F)F [BDNCA-343]

>  <Flu>
588

$$$$
>  <compound>
CC1=CC(/C=C/c2ccccc2OC(F)(F)F)=[N+]2C1=C(c1ccc(NC(=O)CCl)cc1)c1cccn1[B-]2(F)F [BDNCA-365]

>  <Flu>
569

$$$$
>  <compound>
CC1=CC(/C=C/c2ccc(-c3ccc(Br)cc3)o2)=[N+]2C1=C(c1ccc(NC(=O)CCl)cc1)c1cccn1[B-]2(F)F [BDNCA-428]

>  <Flu>
657

$$$$
